Hey, just so you know, these numbers are from the RNAGym collection of RNA variant scans (doi:10.7554/elife.80360).

B1: Twister Ribozyme (parent)
chain: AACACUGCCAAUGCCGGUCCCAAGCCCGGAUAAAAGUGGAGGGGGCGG

Variants of: B1
protocol-notes: self-cleavage, relative activity (ratio to wild type); higher = more cleavage; co-transcriptional
observable: self-cleavage

| mutation-spec | result |
| --- | --- |
| G7C G44A | 0.0625 |
| A22C G38A | 0.894 |
| A11G G29C | 0.679 |
| C15A A35C | 0.546 |

I have 6 variants here; please give me self-cleavage for each one.
1. U37C G39C
2. U6A A10G
3. C9G G17U
4. G28A A33C
5. A32G A33U
6. A10G G42C

output:
[0.0703, 1.22, 0.0981, 0.873, 0.914, 0.618]

Quick batch: self-cleavage for everything below.
1. G7C G39C
2. G24A G36U
3. G28A G39A

output:
1: 0.071; 2: 0.0791; 3: 0.326

Could I get self-cleavage for every one of these entries?
1. A22U G48U
2. C3A G41U
3. U18C A34C
4. C8A G47U
5. C3G A11C
6. U12A G47U
7. C27A G29A
8. C19A U31C

output:
1: 0.911; 2: 0.0613; 3: 0.0598; 4: 0.156; 5: 0.295; 6: 1.05; 7: 0.382; 8: 0.375

# batch: return self-cleavage for each of the 2 variants below
1. A30C G38A
2. A11U G16U

output:
[0.649, 0.544]

Return reported self-cleavage values for all items listed beneath this line.
1. A1C G16A
2. G17A G39C
3. C8U C46U
4. C8A G36A
5. G43U G44C
6. G28C G43C

output:
1: 0.209; 2: 0.105; 3: 0.726; 4: 0.101; 5: 0.767; 6: 0.149

For the 2 variants below, give their self-cleavage values.
1. A23U G48A
2. A1C G7A

output:
1: 0.389; 2: 0.155

Would you be so kind as to report self-cleavage for each listed record?
1. G47U G48U
2. U6G A23U
3. C26A G28A
4. C27U A33C

output:
1.57
0.0909
0.168
0.764

I'm hoping you can list self-cleavage for every variant here, please.
1. C9G G36C
2. C14A C26G
3. G16A C21U
4. C8U G39C
5. U12A C19U
6. C3G

output:
[0.148, 0.118, 0.0697, 0.147, 0.882, 0.541]
